- MEASUREMENT_DESCRIPTION: yeast display, Sf9 membrane polyspecificity reagent, FACS + sequencing; frameworks hold sequencing errors
OBSERVABLE: polyreactivity (PSR sort gate)

Some sequences with known polyreactivity (PSR sort gate) results, for comparison:
>>> reported_value("QVQLVESGGGLVQAGGSLRLSFAASGIIFSHNVMGWYRQAPGKERELVAAITYSGGSTYYADSVKGRFTISRDNAKNTVYLLMNSLKPEDTAVYYCNALGVSRRDYDYWGQGTQVTVSS")
"low polyreactivity"
>>> reported_value("QVQLVESCGCLVQAGGSLRLSCAAYGITFGRNTMVWDRQAPGKERELVAAIDSGGNTYAVSVKGRFTISRDNAKNTVYLQMISLKPEDTAVYYCAVDGGEFSSYGYWGQGTQVTVSS")
"low polyreactivity"
>>> reported_value("QVQLVESCGGLVQAGGSLRLRCAASRSIFDSYAMGWYRQAPGKERELVASISYRGGSTYYADSVKGRFTISRDIAKNTVYLQMNSLKPEDTAVYYCAATPGYHYRSWRYYYWGQGNQVTVSS")
"high polyreactivity"
>>> reported_value("QVQLVESGGGLVQAGGSLRLSCAASGRIFPVYVMGWYRQAPGKEREFVASISWRGGSTFYADSVKGRFTISRDNAKNTVYLQMNSLKPEDTAVYYCAADYWSSDSSRGTMYYWGQGTQVTVSS")
"low polyreactivity"
>>> reported_value("QVQLQESGGGLAQAGGSLRLTCAASGTIFPADSMGWYRQAPGKERELVAGITSGANTYYADSVKGRFTISHDNAKNTVYLQMDSLIPEDIAVYYCGAPGSSTYDLEYWGQGTQVTVSS")
"high polyreactivity"
>>> reported_value("QVQLVESGGGLVQAGGSLRLSCAASGYTFRHYAMGWYRQEPGKERELVAAITFNGGTTYYADSVKGRFTISRDNAKNTVYLQMNSLKPEDTAVYYCNALPYSRGRWRPLSAVDYWGQGTQVTVSS")
"high polyreactivity"
>>> reported_value("QVQLVESGGGLVQAGGSLRLICAASGRTFAYYAMGWYRQAPGKERELVATITWNGGSTYYADSVKGRFTISRDNAKNTVYLQMNSLKPEDTAVYYCAKSVGWWSPPLGDYWGQGTQVTVSS")
"low polyreactivity"
>>> reported_value("QVQLVESGGGLVQSGGSLRLSCAASGIIFLDYVMVWYRQAPGKERELVAAISLSAGSTNYADSVKGRFTISRDNAKNTVYLQMNSLKPEDTAVYYCAAEVLAVRDDGYRSDEMDYWGQGTQVTVSS")
"low polyreactivity"
>>> reported_value("QVQLVESGGGLVQAGGSLRLSCAASGFTFTEYTMGRYRQAPGKERELVATISWSGGSTYYADSVKGRFTISRDNAKNTVYLQMNSLKPEDTAVYYCAKDQWPWVRDSLYTLRYDYWGQGTQVTVSS")
"low polyreactivity"
>>> reported_value("QVQLVESGGGLVQAGGSLRLSCAASGRIFSAYAMGWYRPAPGKERELVAAISWSGGSTYYADSVKGRFTISRDNAKNTVYLQMNSLKPEDTAVYYCAADYFYTSWYQHDYWGQGTQVTVSS")
"low polyreactivity"

Query: Entry under review: QVQLVESGGGLVQAGGSLRLSCAASGFISGYYTMRWYRQAPGKARELVAVINSGGSTYYADSVKGRFTISRDNAKNTVYLQMNSLKPEDTAVYYCAKLGGKYSRYYYWGQGTQVTVSS . Reported polyreactivity (PSR sort gate)?
Result: low polyreactivity
